# tested_system: T1, biotinylated synthetic human Amyloid beta 1-42 peptide (human, UniProt P05067 672-713, biotinylated (N-terminal biotin in Example 4))
# T1 construct: domain: Amyloid beta 1-42 peptide; Numbers 1-42 count on the Amyloid beta peptide, not on APP; also called biotinylated human Amyloid beta 1-42; N-terminal biotin Abeta 1-42
# T1 sequence (P05067 672-713 limits assumed): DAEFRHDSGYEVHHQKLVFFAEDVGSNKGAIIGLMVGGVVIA
# protocol_details: SPR (ProteOn); biotinylated peptide on streptavidin chip, scFv in solution
property: koff (s⁻¹)
Give just the numeric value; s⁻¹ need not be written.

Entry Abet0368 scFv (scFv, V domains shown, not shown: small tags and cut ends, Purified scFv expressed in E. coli) VH: EVQLLESGGGLVQPGGSLRLSCAASGFDFGPSPMWWVRQAPGKGLEWVSVIGKDTQNSTYADSVKGRFTISRDNSKDTLYLQMNSLKAEDTAVYYCAREWMDHSRPYYYYGMDVWGQGTLVTVSS VL: SYELTQPPSVSVSPGQTASITCSGHNLEDKFTSWYQQKSGQSPVLVIYRDDKRPSGIPERFSASNSGHTATLTISGAQATDEADYYCSSQDTVTRVFGGGTKLTVL — recorded koff = 9e-05

Record Abet0329 scFv (scFv, V domains shown, not shown: small tags and cut ends, Purified scFv expressed in E. coli) VH: EVQLLESGGGLVQPGGSLRLSCAASTFNLKRETMWWVRQAPGKGLEWVSVIGSHQERTSYADSVKGRFTISRDNSKNTLYLQMNSLRAEDTAVYYCAREWMDHSRPYYYYGMDVWGQGTLVTVSS VL: SYELTQPPSVSVSPGQTASITCSGHNVSDKWMTWYQQKPGQSPVLVIYRDDKRPSGIPERFSASNSGHTATLTISGTQATDEADYYCSSQDTVTRVFGGGTKLTVL . Reported koff: 0.000138
